# target_system: alpha-synuclein (fibrils) (Homo sapiens)
# Construct: made in house; host or cells: E. coli
# assay_explanation: Competition binding assay, protocol 3a, reference ligand [3H]-compound 1, alpha-synuclein fibrils
# particulars: Experiment B, reference ligand [3H]-compound 1 (1 nM), read-out: Ki (nM) alpha-synuclein (sonicated fibrils)
assay_metric: Ki

smiles_string | target_system | assay_metric | experimental_result
CN(C)c1ncc(-c2cc(-c3cccc(Br)c3)[nH]n2)cn1 | alpha-synuclein (fibrils) (Homo sapiens) | Ki | > 60 nM
CN(C)c1ncc(-c2cc(-c3ccnc(Br)c3)[nH]n2)cn1 | alpha-synuclein (fibrils) (Homo sapiens) | Ki | > 300 nM
CNc1ccc(-c2cc(-c3ccnc(Br)c3)[nH]n2)cc1 | alpha-synuclein (fibrils) (Homo sapiens) | Ki | < 2 nM
Brc1cc(-c2cc(-c3ccc4c(c3)OCO4)n[nH]2)ccn1 | alpha-synuclein (fibrils) (Homo sapiens) | Ki | < 4 nM
